Catalogue of compounds with associated activity at 1000 g/ha
Test system: field corn (Zea mays var. Pioneer 3732)
Test: post-emergence herbicidal activity, corn
Type: in vivo
Conditions: 1 Kg/Ha, about fourteen days, read-out: post-emergence herbicidal activity (% control) CRN
The answer consists of two parts: a number and, after it, its unit.

Known activity at 1000 g/ha results, listed for orientation:
{"test smiles": "CCCCN1Cc2c(-n3c(=O)cc(C(F)(F)F)n(C)c3=O)ccc(Cl)c2C1=O", "activity at 1000 g/ha": "80%"}
{"test smiles": "CCN1Cc2c(-n3c(=O)cc(C(F)(F)F)n(C)c3=O)ccc(Cl)c2C1=O", "activity at 1000 g/ha": "100%"}
{"test smiles": "Cn1c(C(F)(F)F)cc(=O)n(-c2ccc(Cl)c3c2CN(C2CCCC2)C3=O)c1=O", "activity at 1000 g/ha": "100%"}
{"test smiles": "CC(C)N1Cc2c(-n3c(=O)cc(C(F)(F)F)n(N)c3=O)ccc(Cl)c2C1=O", "activity at 1000 g/ha": "100%"}

Problem: Form field: reported activity at 1000 g/ha of "CCON1Cc2c(-n3c(=O)cc(C(F)(F)F)n(C)c3=O)ccc(Cl)c2C1=O"
Result: 100%

Problem: Form field: reported activity at 1000 g/ha of "Cn1c(C(F)(F)F)cc(=O)n(-c2ccc(Cl)c3c2CN(CC#N)C3=O)c1=O"
Result: 95%

Problem: Form field: reported activity at 1000 g/ha of "CC(C)N1Cc2c(c(Cl)cc(Cl)c2-n2c(=O)cc(C(F)(F)F)n(C)c2=O)C1=O"
Result: 100%

Problem: Form field: reported activity at 1000 g/ha of "CCN1Cc2c(c(Cl)cc(Cl)c2-n2c(=O)cc(C(F)(F)F)n(C)c2=O)C1=O"
Result: 100%

Problem: Form field: reported activity at 1000 g/ha of "C#CCn1c(C(F)(F)F)cc(=O)n(-c2ccc(Cl)c3c2CN(C(C)C)C3=O)c1=O"
Result: 50%

Problem: Form field: reported activity at 1000 g/ha of "C=CCON1Cc2c(-n3c(=O)cc(C(F)(F)F)n(C)c3=O)ccc(Cl)c2C1=O"
Result: 90%

Problem: Form field: reported activity at 1000 g/ha of "CN1Cc2c(-n3c(=O)cc(C(F)(F)F)n(C)c3=O)ccc(Cl)c2C1=O"
Result: 50%

Problem: Form field: reported activity at 1000 g/ha of "CC(C)N1Cc2c(ccc(Cl)c2-n2c(=O)cc(C(F)(F)F)n(C)c2=O)C1=O"
Result: 90%

Problem: Form field: reported activity at 1000 g/ha of "CON1Cc2c(-n3c(=O)cc(C(F)(F)F)n(C)c3=O)ccc(Cl)c2C1=O"
Result: 80%

Data provenance is patent US6277847A.
